Where do these numbers come from? They come from the supplement of paper PMC6757056.

B1: library; a variant is named by its letters at N, in order (parent)
chain: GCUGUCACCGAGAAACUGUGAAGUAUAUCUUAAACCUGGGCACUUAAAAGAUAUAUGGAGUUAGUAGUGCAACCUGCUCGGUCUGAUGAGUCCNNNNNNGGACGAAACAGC

# Variants of: B1
# measurementDescription: FACS-Seq fitted mean relative fluorescence mCherry/BFP with ligand (log10 relative fluorescence); HEK293T; ligand: cyclic di-GMP (c-di-GMP-II aptamer); ligand concentration (+) FACS-Seq: 1 mM; higher = higher reporter protein expression
# conditionSummary: ligand present: yes
readoutKind: FACS-Seq fitted mean (log10)
Keep it simple and answer with nothing but the number.

Look up FACS-Seq fitted mean (log10): GCUGUCACCGAGAAACUGUGAAGUAUAUCUUAAACCUGGGCACUUAAAAGAUAUAUGGAGUUAGUAGUGCAACCUGCUCGGUCUGAUGAGUCCUUGUUCGGACGAAACAGC [UUGUUC] -0.462

Field entry: GCUGUCACCGAGAAACUGUGAAGUAUAUCUUAAACCUGGGCACUUAAAAGAUAUAUGGAGUUAGUAGUGCAACCUGCUCGGUCUGAUGAGUCCGCUAUAGGACGAAACAGC [GCUAUA] -0.134

Field entry: GCUGUCACCGAGAAACUGUGAAGUAUAUCUUAAACCUGGGCACUUAAAAGAUAUAUGGAGUUAGUAGUGCAACCUGCUCGGUCUGAUGAGUCCCUGAGUGGACGAAACAGC [CUGAGU] -0.264

Field entry: GCUGUCACCGAGAAACUGUGAAGUAUAUCUUAAACCUGGGCACUUAAAAGAUAUAUGGAGUUAGUAGUGCAACCUGCUCGGUCUGAUGAGUCCUUCCGUGGACGAAACAGC [UUCCGU] 0.296

Field entry: GCUGUCACCGAGAAACUGUGAAGUAUAUCUUAAACCUGGGCACUUAAAAGAUAUAUGGAGUUAGUAGUGCAACCUGCUCGGUCUGAUGAGUCCAAGACGGGACGAAACAGC [AAGACG] 0.133

Field entry: GCUGUCACCGAGAAACUGUGAAGUAUAUCUUAAACCUGGGCACUUAAAAGAUAUAUGGAGUUAGUAGUGCAACCUGCUCGGUCUGAUGAGUCCAGCAGAGGACGAAACAGC [AGCAGA] -0.1

Field entry: GCUGUCACCGAGAAACUGUGAAGUAUAUCUUAAACCUGGGCACUUAAAAGAUAUAUGGAGUUAGUAGUGCAACCUGCUCGGUCUGAUGAGUCCACCCACGGACGAAACAGC [ACCCAC] 0.321

Field entry: GCUGUCACCGAGAAACUGUGAAGUAUAUCUUAAACCUGGGCACUUAAAAGAUAUAUGGAGUUAGUAGUGCAACCUGCUCGGUCUGAUGAGUCCUAUGAUGGACGAAACAGC [UAUGAU] -0.0494

Field entry: GCUGUCACCGAGAAACUGUGAAGUAUAUCUUAAACCUGGGCACUUAAAAGAUAUAUGGAGUUAGUAGUGCAACCUGCUCGGUCUGAUGAGUCCUAUAGAGGACGAAACAGC [UAUAGA] -0.265

Field entry: GCUGUCACCGAGAAACUGUGAAGUAUAUCUUAAACCUGGGCACUUAAAAGAUAUAUGGAGUUAGUAGUGCAACCUGCUCGGUCUGAUGAGUCCGAUGGAGGACGAAACAGC [GAUGGA] -0.11

Field entry: GCUGUCACCGAGAAACUGUGAAGUAUAUCUUAAACCUGGGCACUUAAAAGAUAUAUGGAGUUAGUAGUGCAACCUGCUCGGUCUGAUGAGUCCCGAAACGGACGAAACAGC [CGAAAC] -0.267

Field entry: GCUGUCACCGAGAAACUGUGAAGUAUAUCUUAAACCUGGGCACUUAAAAGAUAUAUGGAGUUAGUAGUGCAACCUGCUCGGUCUGAUGAGUCCCCACAUGGACGAAACAGC [CCACAU] 0.346

Field entry: GCUGUCACCGAGAAACUGUGAAGUAUAUCUUAAACCUGGGCACUUAAAAGAUAUAUGGAGUUAGUAGUGCAACCUGCUCGGUCUGAUGAGUCCUAGACUGGACGAAACAGC [UAGACU] 0.141

Field entry: GCUGUCACCGAGAAACUGUGAAGUAUAUCUUAAACCUGGGCACUUAAAAGAUAUAUGGAGUUAGUAGUGCAACCUGCUCGGUCUGAUGAGUCCUUAUAUGGACGAAACAGC [UUAUAU] 0.0702

Field entry: GCUGUCACCGAGAAACUGUGAAGUAUAUCUUAAACCUGGGCACUUAAAAGAUAUAUGGAGUUAGUAGUGCAACCUGCUCGGUCUGAUGAGUCCUGGAAUGGACGAAACAGC [UGGAAU] 0.272

Field entry: GCUGUCACCGAGAAACUGUGAAGUAUAUCUUAAACCUGGGCACUUAAAAGAUAUAUGGAGUUAGUAGUGCAACCUGCUCGGUCUGAUGAGUCCAUCGGAGGACGAAACAGC [AUCGGA] -0.31

Field entry: GCUGUCACCGAGAAACUGUGAAGUAUAUCUUAAACCUGGGCACUUAAAAGAUAUAUGGAGUUAGUAGUGCAACCUGCUCGGUCUGAUGAGUCCGUGGAAGGACGAAACAGC [GUGGAA] -0.0891

Field entry: GCUGUCACCGAGAAACUGUGAAGUAUAUCUUAAACCUGGGCACUUAAAAGAUAUAUGGAGUUAGUAGUGCAACCUGCUCGGUCUGAUGAGUCCCUUACAGGACGAAACAGC [CUUACA] -0.154

Field entry: GCUGUCACCGAGAAACUGUGAAGUAUAUCUUAAACCUGGGCACUUAAAAGAUAUAUGGAGUUAGUAGUGCAACCUGCUCGGUCUGAUGAGUCCGAACGAGGACGAAACAGC [GAACGA] -0.0281

Field entry: GCUGUCACCGAGAAACUGUGAAGUAUAUCUUAAACCUGGGCACUUAAAAGAUAUAUGGAGUUAGUAGUGCAACCUGCUCGGUCUGAUGAGUCCCAGCCAGGACGAAACAGC [CAGCCA] 0.0333

Field entry: GCUGUCACCGAGAAACUGUGAAGUAUAUCUUAAACCUGGGCACUUAAAAGAUAUAUGGAGUUAGUAGUGCAACCUGCUCGGUCUGAUGAGUCCGUUAAUGGACGAAACAGC [GUUAAU] -0.0912

Field entry: GCUGUCACCGAGAAACUGUGAAGUAUAUCUUAAACCUGGGCACUUAAAAGAUAUAUGGAGUUAGUAGUGCAACCUGCUCGGUCUGAUGAGUCCCAUGACGGACGAAACAGC [CAUGAC] 0.217
